- SUBJECT_OF_TEST: UniProt:O70536
- Sequence (O70536 whole entry): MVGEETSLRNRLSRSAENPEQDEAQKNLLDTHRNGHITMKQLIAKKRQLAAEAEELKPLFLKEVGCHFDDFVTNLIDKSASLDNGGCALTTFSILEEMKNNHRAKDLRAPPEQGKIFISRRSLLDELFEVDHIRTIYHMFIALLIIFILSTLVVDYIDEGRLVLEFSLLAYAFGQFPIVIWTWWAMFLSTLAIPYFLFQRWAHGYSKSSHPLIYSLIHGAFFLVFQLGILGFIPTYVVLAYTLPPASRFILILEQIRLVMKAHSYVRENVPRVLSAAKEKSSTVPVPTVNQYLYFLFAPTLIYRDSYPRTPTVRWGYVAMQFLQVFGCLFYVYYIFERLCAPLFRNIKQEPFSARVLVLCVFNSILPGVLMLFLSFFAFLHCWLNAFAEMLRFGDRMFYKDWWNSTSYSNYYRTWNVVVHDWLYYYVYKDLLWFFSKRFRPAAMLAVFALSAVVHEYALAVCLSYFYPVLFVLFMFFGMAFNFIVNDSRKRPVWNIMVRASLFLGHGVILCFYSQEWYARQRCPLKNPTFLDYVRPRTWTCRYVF
Returns: string. Value is Condition met if measured IC50 is below 90 nM, and Condition not met if it is greater than or equal to it.

## Input Please let me know if CCCCCCCN(CCCCCSc1nc(-c2ccc(OC)cc2)c(-c2ccc(OC)cc2)[nH]1)c1nc2ccccc2o1 shows IC50 below 90 nM.
## Output Condition met

----------
- SUBJECT_OF_TEST: UniProt Q61263
- Sequence (Q61263 whole entry): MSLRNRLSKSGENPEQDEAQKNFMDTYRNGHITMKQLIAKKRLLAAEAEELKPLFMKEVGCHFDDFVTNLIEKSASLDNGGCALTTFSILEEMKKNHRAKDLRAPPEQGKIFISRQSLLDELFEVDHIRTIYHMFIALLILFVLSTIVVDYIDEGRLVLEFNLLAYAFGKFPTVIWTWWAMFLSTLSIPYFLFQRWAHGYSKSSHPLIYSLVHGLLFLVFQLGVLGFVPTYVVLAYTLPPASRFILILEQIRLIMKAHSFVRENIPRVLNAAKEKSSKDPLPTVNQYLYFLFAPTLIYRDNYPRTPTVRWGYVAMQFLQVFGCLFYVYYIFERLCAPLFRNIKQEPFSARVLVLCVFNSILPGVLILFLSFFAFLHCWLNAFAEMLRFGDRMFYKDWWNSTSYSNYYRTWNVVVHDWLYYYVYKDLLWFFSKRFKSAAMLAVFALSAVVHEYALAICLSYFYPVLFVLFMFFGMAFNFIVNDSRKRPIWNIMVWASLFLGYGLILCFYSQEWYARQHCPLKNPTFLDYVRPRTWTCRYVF
- MEASUREMENT_PROTOCOL: Inhibition of Acyl coenzyme A:cholesterol acyltransferase in J774 Macrophage cell culture
Consider the following molecules; for each one, report its IC50.
Numbers only, in nM.

For orientation, consider the following solved cases.
{"TEST_SMILES": "CN(C)c1ccc(-c2nc(SCCCCCNc3nc4ccccc4o3)[nH]c2-c2ccc(N(C)C)cc2)cc1", "VAL": 90}
{"TEST_SMILES": "CCCCCCCN(CCCCCSc1nc(-c2ccccc2)c(-c2ccccc2)[nH]1)c1nc2ccccc2s1", "VAL": 660}
{"TEST_SMILES": "CCCCN(CCCCCSc1nc(-c2ccc(OC)cc2)c(-c2ccc(OC)cc2)[nH]1)c1nc2ccccc2o1", "VAL": 70}

// for each molecule below, give its IC50
1. c1ccc(-c2nc(SCc3cccc(C4(CNc5nc6ccccc6o5)CCCC4)c3)[nH]c2-c2ccccc2)cc1
2. COc1ccc(-c2nc(SCCCCCSc3nc4ccccc4[nH]3)[nH]c2-c2ccc(OC)cc2)cc1
3. Cc1cc(C)n(CCCCCSc2nc(-c3ccc(N(C)C)cc3)c(-c3ccc(N(C)C)cc3)[nH]2)n1
4. COc1ccc(-c2nc(SCCCCCSc3nc4ncncc4[nH]3)[nH]c2-c2ccc(OC)cc2)cc1
5. CCN(CCCCCSc1nc(-c2ccccc2)c(-c2ccc(SC)cc2)[nH]1)c1nc2ccccc2o1

## Output
[5900, 830, 250, 880, 500]

----------
- SUBJECT_OF_TEST: Sterol O-acyltransferase 1 (Mus musculus, UniProt Q61263)
- Sequence (Q61263 whole entry): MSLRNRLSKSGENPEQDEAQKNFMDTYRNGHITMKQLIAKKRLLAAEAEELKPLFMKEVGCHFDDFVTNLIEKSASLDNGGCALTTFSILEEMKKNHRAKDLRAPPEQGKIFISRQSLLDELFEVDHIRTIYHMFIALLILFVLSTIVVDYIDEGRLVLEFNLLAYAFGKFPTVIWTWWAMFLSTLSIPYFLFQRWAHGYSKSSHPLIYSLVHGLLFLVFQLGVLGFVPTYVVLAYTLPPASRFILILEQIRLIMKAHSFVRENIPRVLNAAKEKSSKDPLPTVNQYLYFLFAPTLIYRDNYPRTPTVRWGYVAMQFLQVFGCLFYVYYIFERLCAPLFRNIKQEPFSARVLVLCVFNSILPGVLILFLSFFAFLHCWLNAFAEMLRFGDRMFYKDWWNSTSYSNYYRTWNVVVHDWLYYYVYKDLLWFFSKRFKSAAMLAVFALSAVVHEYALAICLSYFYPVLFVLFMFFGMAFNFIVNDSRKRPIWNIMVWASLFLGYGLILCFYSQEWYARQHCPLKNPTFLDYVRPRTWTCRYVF
- MEASUREMENT_PROTOCOL: Inhibition of Acyl coenzyme A:cholesterol acyltransferase in J774 Macrophage cell culture
MEASURE: IC50 (nM)
Answers are plain numbers, in nM.

Worked examples, 7 compounds total:
{"COMPOUND": "CCCCCCCN(CCCCCSc1nc(-c2ccc(OC)cc2)c(-c2ccc(OC)cc2)[nH]1)c1nc2ccccc2[nH]1", "SUBJECT_OF_TEST": "Sterol O-acyltransferase 1 (Mus musculus, UniProt Q61263)", "IC50, nM": 490}
{"COMPOUND": "CC(CCCSc1nc(-c2ccccc2)c(-c2ccccc2)[nH]1)(CNc1nc2ccccc2o1)c1ccccc1 (stereo not drawn)", "SUBJECT_OF_TEST": "Sterol O-acyltransferase 1 (Mus musculus, UniProt Q61263)", "IC50, nM": 5000}
{"COMPOUND": "CCCCCCCN(CCCCCSc1nc(-c2ccc(OC)cc2)c(-c2ccc(OC)cc2)[nH]1)c1nc2ccccc2o1", "SUBJECT_OF_TEST": "Sterol O-acyltransferase 1 (Mus musculus, UniProt Q61263)", "IC50, nM": 80}
{"COMPOUND": "CCCCN(CCCCCSc1nc(-c2ccc(OC)cc2)c(-c2ccc(OC)cc2)[nH]1)c1nc2cc(C(C)(C)C)ccc2o1", "SUBJECT_OF_TEST": "Sterol O-acyltransferase 1 (Mus musculus, UniProt Q61263)", "IC50, nM": 70}
{"COMPOUND": "CCN(CCCCCSc1nc(-c2ccc(N(C)C)cc2)c(-c2ccc(N(C)C)cc2)[nH]1)c1nc2ccccc2o1", "SUBJECT_OF_TEST": "Sterol O-acyltransferase 1 (Mus musculus, UniProt Q61263)", "IC50, nM": 50}
{"COMPOUND": "COCCOCCN(CCCCCSc1nc(-c2ccc(OC)cc2)c(-c2ccc(OC)cc2)[nH]1)c1nc2ccccc2o1", "SUBJECT_OF_TEST": "Sterol O-acyltransferase 1 (Mus musculus, UniProt Q61263)", "IC50, nM": 80}
{"COMPOUND": "COc1ccc(-c2nc(SCCCCCn3c(Nc4ccccc4)nc4ccccc43)[nH]c2-c2ccc(OC)cc2)cc1", "SUBJECT_OF_TEST": "Sterol O-acyltransferase 1 (Mus musculus, UniProt Q61263)", "IC50, nM": 640}

# next compound below
## Input Tell us which IC50 value is on record for CCCCN(CCCCCSc1nc(-c2ccc(OC)cc2)c(-c2ccc(OC)cc2)[nH]1)c1nc2cc(Cl)c([N+](=O)[O-])cc2o1
## Output 1000

Just for reference, ChEMBL document CHEMBL1128040 is where these values come from.
